Source of measurements: patent US8933015B2

Assay system cyclophilin A (Homo sapiens); read-out recorded as IC50.

Previously resolved entries follow.
[
  {
    "test_smiles": "CO[C@@H]1[C@@H](C)[C@@H](OC)/C=C/C=C/C[C@@H](C)OC(=O)[C@@H]2CCCN(N2)C(=O)[C@H](Cc2cccc(O)c2)NC(=O)[C@H](C(C)C)NC(=O)[C@@H]1C",
    "measurement_target": "cyclophilin A (Homo sapiens)",
    "IC50": "< 0.1 µM"
  },
  {
    "test_smiles": "CO[C@@H]1CC/C=C/C2=CC=C(COC(=O)[C@@H]3CCCN(N3)C(=O)[C@H](Cc3cccc(O)c3)NC(=O)[C@H](C(C)C)NC(=O)[C@@H]1C)S2",
    "measurement_target": "cyclophilin A (Homo sapiens)",
    "IC50": "0.101 to 1 µM"
  },
  {
    "test_smiles": "CO[C@@H]1[C@@H](C)[C@@H](OC)/C=C/C=C/CCNC(=O)[C@@H]2CCCN(N2)C(=O)[C@H](Cc2cccc(O)c2)NC(=O)[C@H](C(C)C)NC(=O)[C@@H]1C",
    "measurement_target": "cyclophilin A (Homo sapiens)",
    "IC50": "< 0.1 µM"
  },
  {
    "test_smiles": "CO[C@@H]1CC/C=C/c2ccc3c(c2)[C@@H](CC3)OC(=O)[C@@H]2CCCN(N2)C(=O)[C@H](Cc2cccc(O)c2)NC(=O)[C@H](C(C)C)NC(=O)[C@@H]1C",
    "measurement_target": "cyclophilin A (Homo sapiens)",
    "IC50": "< 0.1 µM"
  }
]

Could you now look at the following molecule, please?
Item CO[C@@H]1[C@@H](C)[C@@H](OC)CCc2cccc(c2)CNC(=O)[C@@H]2CCCN(N2)C(=O)[C@H](Cc2cccc(O)c2)NC(=O)[C@H](C(C)C)NC(=O)[C@@H]1C has what recorded IC50?
0.101 to 1 µM
